assay: Buccal delivery of fospropofol in monkeys: plasma and CSF levels; assay type: in vivo, monkey; details: monkey, plasma, 50 mg buccal
endpoint_label: Cmax

INSERT INTO measurements (smiles, endpoint_label, result) VALUES
  ('CC(C)c1cccc(C(C)C)c1OCOP(=O)(O)O', 'Cmax', '~150 nM');

###

assay: Pharmacokinetic studies in rats: fospropofol and propofol in plasma after IV, PO or ID fospropofol; settings: male, Sprague-Dawley, rat, plasma, po, 100 mg/kg
endpoint_label: bioavailability

INSERT INTO measurements (compound, endpoint_label, result) VALUES
  ('CC(C)c1cccc(C(C)C)c1O [propofol, 2,6-diisopropylphenol]', 'bioavailability', '≥ 70%');

###

experiment: Buccal delivery of fospropofol in monkeys: plasma and CSF levels; type: in vivo, monkey; settings: monkey, CSF, other: buccal, 50 mg buccal, 15 minutes, read-out: CSF fospropofol, one high point
endpoint_label: concentration at 15 min

INSERT INTO assay_data (smiles, endpoint_label, result) VALUES
  ('CC(C)c1cccc(C(C)C)c1OCOP(=O)(O)O', 'concentration at 15 min', '~850 nM');

###

assay: Pharmacokinetic studies in rats: fospropofol and propofol in plasma after IV, PO or ID fospropofol; conditions: male, Sprague-Dawley, rat, plasma, po, 20 mg/kg
endpoint_label: Cmax (ng/mL)

INSERT INTO measurements (smiles, unit_of_measure, quantitative_result) VALUES
  ('CC(C)c1cccc(C(C)C)c1OCOP(=O)(O)O', 'ng/mL', 230);

###

experiment: Pharmacokinetic studies in rats: fospropofol and propofol in plasma after IV, PO or ID fospropofol; conditions: male, Sprague-Dawley, rat, plasma, 30 mg/kg
endpoint_label: AUC(0-t)

INSERT INTO measurements (smiles, endpoint_label, result) VALUES
  ('CC(C)c1cccc(C(C)C)c1OCOP(=O)(O)O', 'AUC(0-t)', '44 ng·h/mL');

###

assay: Pharmacokinetic studies in rats: fospropofol and propofol in plasma after IV, PO or ID fospropofol; conditions: male, Sprague-Dawley, rat, plasma, 100 mg/kg
endpoint_label: half-life (min)

INSERT INTO results (smiles, endpoint_label, quantitative_result) VALUES
  ('CC(C)c1cccc(C(C)C)c1OCOP(=O)(O)O', 'half-life', 13.8);

###

assay: Pharmacokinetic studies in rats: fospropofol and propofol in plasma after IV, PO or ID fospropofol; conditions: male, Sprague-Dawley, rat, plasma, po, 20 mg/kg
endpoint_label: AUC(0-t) (ng·h/mL)

INSERT INTO measurements (molecule, unit_of_measure, quantitative_result) VALUES
  ('CC(C)c1cccc(C(C)C)c1OCOP(=O)(O)O [fospropofol]', 'ng·h/mL', 50);

###

assay: Pharmacokinetic studies in rats: fospropofol and propofol in plasma after IV, PO or ID fospropofol; settings: male, Sprague-Dawley, rat, plasma, iv, 5 mg/kg
endpoint_label: AUC(0-inf) (ng·h/mL)

INSERT INTO results (smiles, quantitative_result) VALUES
  ('CC(C)c1cccc(C(C)C)c1OCOP(=O)(O)O', 3150);

###

assay: Pharmacokinetic studies in rats: fospropofol and propofol in plasma after IV, PO or ID fospropofol; settings: male, Sprague-Dawley, rat, plasma, 30 mg/kg
endpoint_label: half-life

INSERT INTO results (smiles, result) VALUES
  ('CC(C)c1cccc(C(C)C)c1OCOP(=O)(O)O', '12.6 min');

###

assay: Pharmacokinetic studies in rats: fospropofol and propofol in plasma after IV, PO or ID fospropofol; conditions: male, Sprague-Dawley, rat, plasma, iv, 5 mg/kg
endpoint_label: Vd

INSERT INTO assay_data (smiles, result) VALUES
  ('CC(C)c1cccc(C(C)C)c1OCOP(=O)(O)O', '1.02 L/kg');

###

experiment: Pharmacokinetic studies in rats: fospropofol and propofol in plasma after IV, PO or ID fospropofol; conditions: male, Sprague-Dawley, rat, plasma, 100 mg/kg
endpoint_label: AUC(0-inf) (ng·h/mL)

INSERT INTO assay_data (smiles, quantitative_result) VALUES
  ('CC(C)c1cccc(C(C)C)c1OCOP(=O)(O)O', 650);

###

assay: Pharmacokinetic studies in rats: fospropofol and propofol in plasma after IV, PO or ID fospropofol; details: male, Sprague-Dawley, rat, plasma, iv, 5 mg/kg
endpoint_label: AUC(0-t)

INSERT INTO results (smiles, result) VALUES
  ('CC(C)c1cccc(C(C)C)c1OCOP(=O)(O)O', '3150 ng·h/mL');

###

Assay: Pharmacokinetic studies in rats: fospropofol and propofol in plasma after IV, PO or ID fospropofol
Conditions: male, Sprague-Dawley, rat, plasma, 30 mg/kg
Method: Male Sprague-Dawley rats (Charles River, Md., USA) weighing 200-250 g were used, unless otherwise noted. […] For fospropofol analysis, fospropofol-d6 (internal standard prepared in 1.0 M ammonium acetate buffer) was added to the plasma samples (rat or human: 0.05 mL) and subsequently extracted using a solid phase extraction (SPE). […] The separated analytes were detected using tandem mass spectrometry (MS/MS) detection.
endpoint_label: AUC(0-inf) (ng·h/mL)

INSERT INTO assay_data (smiles, quantitative_result) VALUES
  ('CC(C)c1cccc(C(C)C)c1OCOP(=O)(O)O', 50);

###

experiment: Pharmacokinetic studies in rats: fospropofol and propofol in plasma after IV, PO or ID fospropofol; settings: male, Sprague-Dawley, rat, plasma, po, 100 mg/kg
endpoint_label: AUC(0-t) (ng·h/mL)

INSERT INTO results (compound, quantitative_result) VALUES
  ('CC(C)c1cccc(C(C)C)c1OCOP(=O)(O)O [fospropofol]', 2160);

###

Experiment: Pharmacokinetic studies in rats: fospropofol and propofol in plasma after IV, PO or ID fospropofol
Settings: male, Sprague-Dawley, rat, plasma, po, 20 mg/kg
Procedure: Male Sprague-Dawley rats (Charles River, Md., USA) weighing 200-250 g were used, unless otherwise noted. […] For fospropofol analysis, fospropofol-d6 (internal standard prepared in 1.0 M ammonium acetate buffer) was added to the plasma samples (rat or human: 0.05 mL) and subsequently extracted using a solid phase extraction (SPE). […] The separated analytes were detected using tandem mass spectrometry (MS/MS) detection.
endpoint_label: AUC(0-inf) (ng·h/mL)

INSERT INTO measurements (compound, quantitative_result) VALUES
  ('CC(C)c1cccc(C(C)C)c1OCOP(=O)(O)O [fospropofol]', 60);

###

test: Human Study 1: absolute bioavailability, plasma pharmacokinetics of fospropofol and propofol; format: in vivo; conditions: male, human, plasma, po, 400 mg; summary in discussion
endpoint_label: bioavailability

INSERT INTO results (smiles, endpoint_label, result) VALUES
  ('CC(C)c1cccc(C(C)C)c1O', 'bioavailability', '≥ 30%');

###

assay: Human Study 1: absolute bioavailability, plasma pharmacokinetics of fospropofol and propofol; type: in vivo; details: male, human, plasma; fospropofol 400 mg PO
endpoint_label: Tmax (min)

INSERT INTO measurements (smiles, unit_of_measure, quantitative_result) VALUES
  ('CC(C)c1cccc(C(C)C)c1O', 'min', 19.8);

###

assay: Pharmacokinetic studies in rats: fospropofol and propofol in plasma after IV, PO or ID fospropofol; conditions: male, Sprague-Dawley, rat, plasma, 100 mg/kg
endpoint_label: Cmax (ng/mL)

INSERT INTO measurements (smiles, endpoint_label, quantitative_result) VALUES
  ('CC(C)c1cccc(C(C)C)c1OCOP(=O)(O)O', 'Cmax', 3740);

###

assay: Pharmacokinetic studies in rats: fospropofol and propofol in plasma after IV, PO or ID fospropofol; conditions: male, Sprague-Dawley, rat, plasma, po, 100 mg/kg
endpoint_label: half-life (min)

INSERT INTO measurements (smiles, endpoint_label, unit_of_measure, quantitative_result) VALUES
  ('CC(C)c1cccc(C(C)C)c1OCOP(=O)(O)O', 'half-life', 'min', 29.4);

###

assay: Pharmacokinetic studies in rats: fospropofol and propofol in plasma after IV, PO or ID fospropofol; settings: male, Sprague-Dawley, rat, plasma, po, 100 mg/kg
endpoint_label: AUC(0-inf) (ng·h/mL)

INSERT INTO results (smiles, endpoint_label, unit_of_measure, quantitative_result) VALUES
  ('CC(C)c1cccc(C(C)C)c1OCOP(=O)(O)O', 'AUC(0-inf)', 'ng·h/mL', 2180);

###

test: Pharmacokinetic studies in rats: fospropofol and propofol in plasma after IV, PO or ID fospropofol; settings: male, Sprague-Dawley, rat, plasma, 30 mg/kg
endpoint_label: Cmax (ng/mL)

INSERT INTO measurements (smiles, unit_of_measure, quantitative_result) VALUES
  ('CC(C)c1cccc(C(C)C)c1OCOP(=O)(O)O', 'ng/mL', 170);

###

test: Pharmacokinetic studies in rats: fospropofol and propofol in plasma after IV, PO or ID fospropofol; settings: male, Sprague-Dawley, rat, plasma, po, 20 mg/kg
endpoint_label: half-life (min)

INSERT INTO measurements (compound, endpoint_label, unit_of_measure, quantitative_result) VALUES
  ('CC(C)c1cccc(C(C)C)c1OCOP(=O)(O)O [fospropofol]', 'half-life', 'min', 11.4);
